# protocolDetails: Reduction in circulating lymphocytes count in Lewis rat at 2 mg/kg, po measured at 24 hrs by hematology analyzer based analysis
# Assay type: Functional, organism-based
# Set-up: scale not given: the % may be the effect or the level left
# studyConditions: in vivo
measurementKind: Activity (%)
Give the value, in units of %, as a plain number.

// below: answered molecules
| molecule | valueUnit | Activity |
| --- | --- | --- |
| COCCCCCCC1CCc2cc([C@H]3CC[C@](N)(CO)C3)ccc2C1 (stereo in doubt; 25b) | % | 79 |
| CCOCCCC1CCc2cc([C@H]3CC[C@](N)(CO)C3)ccc2C1 (single isomer, unassigned) | % | 83 |

Note Activity for the molecule shown: CCCCSCC1CCc2cc([C@H]3CC[C@](N)(CO)C3)ccc2C1 (single isomer, unassigned)
44

Write down Activity measured for item CCCSCC[C@@H]1CCc2cc([C@H]3CC[C@](N)(CO)C3)ccc2C1
73

Give me measured Activity, please, for this molecule: CCCOCCOC1CCc2cc([C@H]3CC[C@](N)(CO)C3)ccc2C1 (stereo partly drawn)
40

Give me measured Activity, please, for this molecule: COCCCC1CCc2cc([C@H]3CC[C@](N)(CO)C3)ccc2C1 (stereo in doubt; 22b)
66

Given COCCCC1CCc2cc([C@H]3CC[C@](N)(CO)C3)ccc2C1 (stereo in doubt; 22a) , respond with its Activity.
74

Identify measured Activity corresponding to CCSCCCC1CCc2cc([C@H]3CC[C@](N)(CO)C3)ccc2C1 (single isomer, unassigned)
74

----------
# protocolDetails: Terminal half life in Sprague- Dawley rat at 2 mg/kg, iv
# Assay type: ADME, organism-based
# studyConditions: in vivo, read-out: beta t1/2 (converted)
measurementKind: half-life (h)
Enter your answer as a number in h; do not include the unit.

Specify half-life for COCCCCCC1CCc2cc([C@H]3CC[C@](N)(CO)C3)ccc2C1 (single isomer, unassigned; 24) and stop.
19

----------
# protocolDetails: Clearance in cynomolgus monkey at 1 mg/kg, iv
# Format: ADME, organism-based, Macaca fascicularis
# studyConditions: in vivo
measurementKind: clearance (mL/min/kg)
Report only the number, with the unit mL/min/kg understood.

| compound | valueUnit | clearance |
| --- | --- | --- |
| CCOCCCC1CCc2cc([C@H]3CC[C@](N)(CO)C3)ccc2C1 (single isomer, unassigned) | mL/min/kg | 7.4 |

Please give measured clearance of the following entry: COCCCCCC1CCc2cc([C@H]3CC[C@](N)(CO)C3)ccc2C1 (single isomer, unassigned; 24)
9.7

----------
# protocolDetails: Drug concentration in Lewis rat blood assessed as concentration of parent compound at 1 mg/kg, po measured at 4 hrs by LC-MS/MS analysis
# Assay type: ADME, organism-based
# studyConditions: in vivo, 1 mg/kg, 4 h, 1 mg/kg, 4 h, read-out: Ct
measurementKind: concentration
Show the value, then the unit it is measured in.

Examples with answers:
| compound | measurementKind | reportedResult |
| --- | --- | --- |
| CCCCCCOC1CCc2cc([C@H]3CC[C@](N)(CO)C3)ccc2C1 (stereo in doubt; 30b) | concentration | 362 nM |
| CCCCCOC1CCc2cc([C@H]3CC[C@](N)(CO)C3)ccc2C1 (stereo in doubt; 10b) | concentration | 215 nM |
| CCCCCCCOC1CCc2cc([C@H]3CC[C@](N)(CO)C3)ccc2C1 (stereo in doubt; 33b) | concentration | 40 nM |

Pending compound:
Assign concentration to the following record: CCCCCCOC1CCc2cc([C@H]3CC[C@](N)(CO)C3)ccc2C1 (stereo in doubt; 30a)
53 nM

The values you see were collected from ChEMBL document CHEMBL4732158.
